Target: human CYP4F2 (Homo sapiens (Human))
Sequence (P78329 5-520): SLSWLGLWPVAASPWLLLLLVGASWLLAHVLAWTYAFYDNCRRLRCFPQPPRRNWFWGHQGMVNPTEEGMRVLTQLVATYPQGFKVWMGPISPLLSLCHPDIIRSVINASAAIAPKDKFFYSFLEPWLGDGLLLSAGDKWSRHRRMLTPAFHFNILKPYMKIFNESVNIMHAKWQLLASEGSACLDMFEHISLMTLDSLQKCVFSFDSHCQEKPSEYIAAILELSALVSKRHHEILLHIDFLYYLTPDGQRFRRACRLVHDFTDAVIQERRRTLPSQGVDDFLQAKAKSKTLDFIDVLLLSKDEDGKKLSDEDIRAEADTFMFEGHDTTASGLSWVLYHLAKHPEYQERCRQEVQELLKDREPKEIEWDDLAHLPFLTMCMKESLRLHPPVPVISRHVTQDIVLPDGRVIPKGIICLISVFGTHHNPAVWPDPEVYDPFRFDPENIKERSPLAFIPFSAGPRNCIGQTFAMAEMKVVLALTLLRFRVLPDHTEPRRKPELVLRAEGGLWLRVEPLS
Assay: Inhibition test against 20-HETE producing enzyme CYP4F2 (luciferine derivative, luminescence)
Type: biochemical
Conditions: human CYP4F2, luciferine derivative, luminescence
recordedEndpoint: IC50 (nM)

Here are 3 compounds together with their reported answers.
compound | u | IC50
O=C(CCc1cccc(COc2ccc(-c3ccn[nH]3)nc2)c1)N1CCOCC1 | nM | 140
CS(=O)(=O)NC(=O)CCc1cccc(COc2ccc(-c3ccn[nH]3)nc2)c1 | nM | 2700
CNC(=O)C(C)c1cccc(COc2ccc(-c3ccn[nH]3)nc2)c1 (centres unmarked) | nM | 55

(a) O=C(O)[C@@H]1CCc2cc(CCOc3ccc(-c4ccn[nH]4)nc3)ccc2O1
(b) CCC(OCCCCCCCOc1ccc(-c2ccn[nH]2)nc1)C(=O)O (centres unmarked)
(c) O=C(O)C1CC1c1cccc(COc2ccc(-c3ccn[nH]3)nc2)c1F (single isomer, unassigned) [Example 71-45]
(d) O=C(O)C1CCc2ccc(COc3ccc(-c4[nH]ncc4Cl)nc3)cc2O1 (single isomer, unassigned) [Example 75-8]
(e) O=C(O)c1ccc(F)c(CCCOc2ccc(-c3ccn[nH]3)nc2)c1
INPUT: Returns the items ordered by IC50, from maximum to minimum. I would appreciate it if you listed the labels in the requested order.
OUTPUT: e, a, c, b, d
(e: 770 nM, a: 430 nM, c: 210 nM, b: 140 nM, d: 67 nM)

(I) O=C(O)C1CC1c1ccc(CCOc2ccc(-c3ccn[nH]3)nc2)c(F)c1 (single isomer, unassigned) [Example 71-17]
(II) O=C(O)[C@H]1CCc2ccc(COc3ccc(-c4ccn[nH]4)nc3)cc2O1
INPUT: Please indicate which entry, I or II , has the lower recorded IC50 value. Field: selected label. Fill in the label of the entry you choose.
OUTPUT: II
(II: 300 nM, I: 520 nM)
